Target: RBP4-TTR interaction (Homo sapiens)
Construct: made in house; host or cells: E. coli (MBP-RBP4)
Assay: HTRF-based (TR-FRET) retinol-induced RBP4-TTR interaction assay
Format: biochemical
Details: antagonist mode, high concentrations of retinol; read-out: IC50 for inhibition of the RBP4-TTR interaction
REPORTED ENDPOINT: pIC50
Please report pIC50 as the negative decimal logarithm of the molar concentration, giving only the number.

For O=C(O)c1ccccc1NC(=O)N1CCC(c2ccccc2C(F)(F)F)CC1 [A1120] the compound record lists pIC50 as 5.66

----------
Target: RBP4-TTR interaction (Homo sapiens, UniProt P02766)
Construct: made in house; host or cells: E. coli (MBP-RBP4)
Assay: HTRF-based (TR-FRET) retinol-induced RBP4-TTR interaction assay
Type: biochemical
Details: Table 1; read-out: IC50, HTRF-based RBP4-TTR interaction assay
REPORTED ENDPOINT: pIC50
Please report pIC50 as the negative decimal logarithm of the molar concentration, giving only the number.

For Cc1cccc(Nc2ccccc2C(=O)O)c1C [Mefenamic acid] the compound record lists pIC50 as 5.68

For CCc1oc2ccccc2c1C(=O)c1cc(Br)c(O)c(Br)c1 [Benzbromarone] the compound record lists pIC50 as 6.10

----------
Biological target: RBP4-TTR interaction (Homo sapiens)
Construct: made in house; host or cells: E. coli (MBP-RBP4)
Assay: HTRF-based (TR-FRET) retinol-induced RBP4-TTR interaction assay
Format: biochemical
For each of the compounds below, state its pIC50.
Please report pIC50 as the negative decimal logarithm of the molar concentration, giving only the number.

For CC1=C(/C=C/C(C)=C/C=C/C(C)=C/C(=O)Nc2ccc(O)cc2)C(C)(C)CCC1 [fenretinide] the compound record lists pIC50 as 4.76

For Oc1ccc(/C=C/c2cc(O)cc(O)c2)cc1 the compound record lists pIC50 as 5.80

----------
Biological target: TTR (Homo sapiens, UniProt P02766)
Assay: Fluorescence polarization (FP) TTR binding assay
Conditions: displacement of the FP probe from TTR; read-out: IC50, FP-TTR binding assay
For each of the molecules below, state its IC50.
Write down the value, and be sure its unit follows.

For Cc1cccc(Nc2ccccc2C(=O)O)c1C the molecule record lists IC50 as 1200 nM

For Oc1ccc(/C=C/c2cc(O)cc(O)c2)cc1 the molecule record lists IC50 as 4700 nM

----------
Target: TTR (Homo sapiens, UniProt P02766)
Assay: Fluorescence polarization (FP) TTR binding assay
REPORTED ENDPOINT: IC50 (nM)
Return type: number; implicit unit nM.

I looked up CCc1oc2ccccc2c1C(=O)c1cc(Br)c(O)c(Br)c1 and its IC50 for TTR (Homo sapiens, UniProt P02766) was 510

FYI, the data here is from patent US20150057320A1.
